assayed target: Cathepsin G (Homo sapiens)
Sequence (P08311 whole entry): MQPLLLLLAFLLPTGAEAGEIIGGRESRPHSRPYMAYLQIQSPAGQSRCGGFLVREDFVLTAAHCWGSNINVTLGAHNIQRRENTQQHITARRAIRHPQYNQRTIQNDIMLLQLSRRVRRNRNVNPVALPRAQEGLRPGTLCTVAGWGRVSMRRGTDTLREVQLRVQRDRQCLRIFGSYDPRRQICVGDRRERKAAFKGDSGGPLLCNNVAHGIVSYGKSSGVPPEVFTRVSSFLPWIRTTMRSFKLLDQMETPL
test summary: Inhibitory activity against human neutrophil cathepsin G.
# label = T if IC50 < 4 µM else F

Enquiry: Please check: IC50 for `CN1CCN(C(=O)c2ccc(N3CC(=O)N(S(=O)(=O)c4ccc(Cl)cc4)C3=O)cc2)CC1` , strictly under 4 µM or not?
Return: F

Enquiry: Entry to check: `O=C(O)c1ccc(N2CC(=O)N(S(=O)(=O)c3ccc(Cl)cc3)C2=O)cc1`
Return: F

Enquiry: Entry to check: `O=C1CN(c2ccccc2)C(=O)N1C(=O)c1ccccc1`
Return: F

Enquiry: Entry to check: `O=C1CN(c2ccc(Cl)c(Cl)c2)C(=O)N1S(=O)(=O)c1ccc(Cl)cc1`
Return: F

Enquiry: Entry to check: `O=C1CN(c2ccccc2)C(=O)N1S(=O)(=O)c1ccc(Oc2ccccc2)cc1`
Return: T

Enquiry: Entry to check: `COc1ccc(S(=O)(=O)N2C(=O)CN(c3ccc(C)c(C)c3)C2=O)cc1OC`
Return: F

Enquiry: Entry to check: `O=C(O)c1cccc(N2CC(=O)N(S(=O)(=O)c3ccc(Cl)cc3)C2=O)c1`
Return: F

Enquiry: Entry to check: `COc1ccc(N2CC(=O)N(S(=O)(=O)c3ccc(Cl)cc3)C2=O)cc1OC`
Return: F

Enquiry: Entry to check: `O=C1CN(c2ccccc2)C(=O)N1S(=O)(=O)c1cccc(Cl)c1`
Return: T

Enquiry: Entry to check: `O=C1CN(c2ccccc2)C(=O)N1S(=O)(=O)c1ccccc1Cl`
Return: T

Enquiry: Entry to check: `O=C(O)c1ccc(S(=O)(=O)N2C(=O)CN(c3ccccc3)C2=O)cc1`
Return: T

Enquiry: Entry to check: `CC(=O)Nc1ccc(N2CC(=O)N(S(=O)(=O)c3ccc(Cl)cc3)C2=O)cc1`
Return: F

Enquiry: Entry to check: `CN1CCN(C(=O)c2cccc(S(=O)(=O)N3C(=O)CN(c4ccccc4)C3=O)c2)CC1`
Return: F

Enquiry: Entry to check: `O=C(OCN1C(=O)CN(c2ccccc2)C1=O)c1ccccc1`
Return: F
